study_target: T1, human IL-23R endogenously expressed on DB cells (human, UniProt Q5VWK5 24-629)
T1 sequence (looked up): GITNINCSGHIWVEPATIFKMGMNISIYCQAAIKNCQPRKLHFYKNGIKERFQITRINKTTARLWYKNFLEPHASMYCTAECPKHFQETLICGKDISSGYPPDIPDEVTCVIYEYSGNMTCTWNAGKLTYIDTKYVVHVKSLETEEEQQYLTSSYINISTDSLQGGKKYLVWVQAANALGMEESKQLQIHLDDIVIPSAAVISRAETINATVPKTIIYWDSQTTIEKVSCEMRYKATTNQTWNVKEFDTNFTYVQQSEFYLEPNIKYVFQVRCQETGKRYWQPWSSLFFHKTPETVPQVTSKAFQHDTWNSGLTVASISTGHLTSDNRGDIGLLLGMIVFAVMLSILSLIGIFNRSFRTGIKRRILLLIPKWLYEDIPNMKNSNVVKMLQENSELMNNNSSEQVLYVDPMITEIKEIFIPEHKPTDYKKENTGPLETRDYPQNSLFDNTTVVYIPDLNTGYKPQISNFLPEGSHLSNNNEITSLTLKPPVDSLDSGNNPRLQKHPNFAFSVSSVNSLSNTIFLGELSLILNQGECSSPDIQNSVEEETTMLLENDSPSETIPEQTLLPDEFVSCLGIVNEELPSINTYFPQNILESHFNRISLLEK
protocol_summary: cell-based or functional assay
*1 amine or outer side, *2 acyl side, *3 side chain or, on linkers, in order; H or OH if unused. Bridges are numbered along the chain shown (N, C = ends). Primed or numbered codes have the meaning given here. Where no end group is shown, it is not given here. [ ]: non-standard residue; d: D form. The star is where a group is joined. K(G) = Lys(Gly): lysine with a glycine on the side-chain amine, (2S)-2-amino-6-[(2-aminoacetyl)amino]hexanoic acid, O=C(CN[*:3])NCCCC[C@H](N[*:1])C(=O)[*:2]; 1,3‑dibromopropan‑2‑one″ = linker forming 1,3-dithio-propan-2-one bridge -SCH2C(=O)CH2S- between two Cys; γDab = iso-Dab: Dab joined to preceding residue by its side-chain amine, O=C([C@H](CCN[*:1])N[*:3])[*:2]; Propanoyl(3-(3-pyridyl)) = O=C(CCc1cccnc1)*; Phe(4-Me) = Cc1ccc(C[C@H](N)C(=O)O)cc1; 2Nal = N[C@@H](Cc1ccc2ccccc2c1)C(=O)O; AEF = NCCOc1ccc(C[C@H](N)C(=O)O)cc1; 3Pal = N[C@@H](Cc1cccnc1)C(=O)O; αMeL = CC(C)C[C@](C)(N)C(=O)O; β3hK = NCCCC[C@H](N)CC(=O)O; 3Amb = NCc1cccc(C(=O)O)c1; Dab = NCC[C@H](N)C(=O)O
endpoint: hIL-23 (pSTAT3) antagonist IC50 (nM)

1) [K(G)]WQE[AEF][2Nal][αMeL]E[Dab][3Pal]-NHMe (lactam 1-8, N-4; SMILES CNC(=O)[C@H](Cc1cccnc1)NC(=O)[C@H](CCN)NC(=O)[C@@H]1CCC(=O)NCC(=O)NCCCC[C@@H]2NC(=O)CC[C@H](NC(=O)[C@H](CCC(N)=O)NC(=O)[C@H](Cc3c[nH]c4ccccc34)NC2=O)C(=O)N[C@@H](Cc2ccc(OCCN)cc2)C(=O)N[C@@H](Cc2ccc3ccccc3c2)C(=O)N[C@@](C)(CC(C)C)C(=O)N1) [Compound 46]
25
2) [dK]TVWQE[AEF][2Nal][αMeL]E[Dab][3Pal]-NH2 (lactam 1-10; lactam (positions not given here); not fully specified (bridges); printed as [{d}K](1c)(6c)^{†}TVWQE(6c)[Y(2-aminoethoxy)][2-Nal][2-Me-Leu]E(1c)[Dab][3-(3-Pyridyl)-Ala]-[NH2]) [Compound 1]
0.23

P. [3Amb]SCWQC[AEF][2Nal][αMeL]ER[3Pal]-NH2 (lactam N-10; linker 3-6 via 1,3‑dibromopropan‑2‑one″) [Ref 78]
Q. [β3hK]GWQE[AEF][2Nal][αMeL]E[Dab][3Pal]-NHMe (lactam 1-9; lactam (positions not given here); not fully specified (bridges); also: beta-amine of residue 1 is in one of the two lactams) [Compound 99]
R. Ac-KTCWQC[AEF][2Nal][αMeL]E[Dab][3Pal]-NH2 (lactam 1-10; linker 3-6 via 1,3‑dibromopropan‑2‑one″) [Ref 155]
S. KTVWQE[Phe(4-Me)][2Nal][αMeL][γDab](Propanoyl(3-(3-pyridyl))) (lactam 1-C, N-6; also: iso-Dab joined to preceding residue via its side-chain amine) [Compound 24]
Task: List the 4 entries from lowest hIL-23 (pSTAT3) antagonist IC50 to highest hIL-23 (pSTAT3) antagonist IC50 value. Hello, could you send the labels back in the order asked? Thank you.
Output: Q, R, P, S
(Q: 0.014 nM, R: 0.031 nM, P: 0.13 nM, S: 100 nM)
